B1: library; numbered along this chain (parent)
chain: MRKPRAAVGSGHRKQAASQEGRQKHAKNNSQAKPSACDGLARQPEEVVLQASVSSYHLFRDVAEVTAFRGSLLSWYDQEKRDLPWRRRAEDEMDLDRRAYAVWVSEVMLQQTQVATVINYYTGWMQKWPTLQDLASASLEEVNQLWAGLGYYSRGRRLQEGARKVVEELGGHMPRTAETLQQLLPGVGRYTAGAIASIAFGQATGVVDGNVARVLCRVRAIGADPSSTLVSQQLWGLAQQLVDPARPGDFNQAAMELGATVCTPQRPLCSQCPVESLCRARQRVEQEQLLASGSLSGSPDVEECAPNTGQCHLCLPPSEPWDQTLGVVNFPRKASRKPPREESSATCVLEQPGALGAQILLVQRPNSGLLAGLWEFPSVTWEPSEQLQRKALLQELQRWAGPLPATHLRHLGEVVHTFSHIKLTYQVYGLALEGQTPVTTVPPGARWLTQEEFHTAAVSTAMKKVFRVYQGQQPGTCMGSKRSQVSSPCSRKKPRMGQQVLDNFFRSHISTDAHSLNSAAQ

# Variants of: B1
# assay_summary: 8OG:A repair function score (normalized; synonymous = 0, nonsense = -1) (normalized log-likelihood score); higher = more repair activity (WT-like);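 also: cells sorted at 72 h after reporter transfection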
# cond: with 8OG:A DNA repair reporter (GFP) in HEK-293 MUTYH KO cells
endpoint: 8OG:A repair function score
Lab note: jot the number down without any unit.

Input T406W . Output 8OG:A repair function score: -0.0828

Input A135K . Output 8OG:A repair function score: -0.317

Input L257W . Output 8OG:A repair function score: -0.968

Input S270T . Output 8OG:A repair function score: -0.0207

Input C272Y . Output 8OG:A repair function score: -0.982

Input V415L . Output 8OG:A repair function score: 0.0523

Input A461D . Output 8OG:A repair function score: -0.732

Input D91H . Output 8OG:A repair function score: 0.0064

Input R157G . Output 8OG:A repair function score: -0.381

Input R86F . Output 8OG:A repair function score: -1.75

Input W321M . Output 8OG:A repair function score: -0.218

Input R409S . Output 8OG:A repair function score: 0.0978

Input D300C . Output 8OG:A repair function score: -0.0631

Input A519H . Output 8OG:A repair function score: -0.00545

Input P338D . Output 8OG:A repair function score: -0.0378

Input L58S . Output 8OG:A repair function score: -0.0155

Input V53R . Output 8OG:A repair function score: 0.00694

Input G471T . Output 8OG:A repair function score: -0.0359

Input L313R . Output 8OG:A repair function score: -0.425

Input L411R . Output 8OG:A repair function score: -0.222

Input R87V . Output 8OG:A repair function score: -0.0326

Input Q239K . Output 8OG:A repair function score: -0.0216
